Test system: Sindbis virus TE/5'2J-GFP
RUN_DESCRIPTION: percent infected (GFP+ in RFP+ ISG-expressing cells); higher = more infection (less antiviral activity)
MEASUREMENT_PARAMETERS: experiment: confirmatory screen 3; BHK/HA-Zeo (control)
READOUT_LABEL: percent infected (%)
Form entry: value (%) — number only.

These solved cases illustrate the format of a correct answer.
{"SEQUENCE_CODE": "MALLDVCGAPRGQRPESALPVAGSGRRSDPGHYSFSMRSPELALPRGMQPTEFFQSLGGDGERNVQIEMAHGTTTLAFKFQHGVIAAVDSRASAGSYISALRVNKVIEINPYLLGTMSGCAADCQYWERLLAKECRLYYLRNGERISVSAASKLLSNMMCQYRGMGLSMGSMICGWDKKGPGLYYVDEHGTRLSGNMFSTGSGNTYAYGVMDSGYRPNLSPEEAYDLGRRAIAYATHRDSYSGGVVNMYHMKEDGWVKVESTDVSDLLHQYREANQ [PSMB8]", "percent infected / %": 94.2}
{"SEQUENCE_CODE": "MLRAGAPTGDLPRAGEVHTGTTIMAVEFDGGVVMGSDSRVSAGEAVVNRVFDKLSPLHERIYCALSGSAADAQAVADMAAYQLELHGIELEEPPLVLAAANVVRNISYKYREDLSAHLMVAGWDQREGGQVYGTLGGMLTRQPFAIGGSGSTFIYGYVDAAYKPGMSPEECRRFTTDAIALAMSRDGSSGGVIYLVTITAAGVDHRVILGNELPKFYDE [PSMB9]", "percent infected / %": 87.6}
{"SEQUENCE_CODE": "MASVIPASNRSMRSDRNTYVGKRFVHVKNPYLDLMDEDILYHLDLGTKTHNLPAMFGDVKFVCVGGSPNRMKAFALFMHKELGFEEAEEDIKDICAGTDRYCMYKTGPVLAISHGMGIPSISIMLHELIKLLHHARCCDVTIIRIGTSGGIGIAPGTVVITDIAVDSFFKPRFEQVILDNIVTRSTELDKELSEELFNCSKEIPNFPTLVGHTMCTYDFYEGQGRLDGALCSFSREKKLDYLKRAFKAGVRNIEMESTVFAAMCGLCGLKAAVVCVTLLDRLDCDQINLPHDVLVEYQQRPQLLISNFIRRRLGLCD [UPP2]", "percent infected / %": 83.4}
{"SEQUENCE_CODE": "MDFKIEHTWDGFPVKHEPVFIRLNPGDRGVMMDISAPFFRDPPAPLGEPGKPFNELWDYEVVEAFFLNDITEQYLEVELCPHGQHLVLLLSGRRNVWKQELPLSFRMSRGETKWEGKAYLPWSYFPPNVTKFNSFAIHGSKDKRSYEALYPVPQHELQQGQKPDFHCLEYFKSFNFNTLLGEEWKQPESDLWLIEKCDI [C4orf33]", "percent infected / %": 93.8}
{"SEQUENCE_CODE": "MEKGPVRAPAEKPRGARCSNGFPERDPPRPGPSRPAEKPPRPEAKSAQPADGWKGERPRSEEDNELNLPNLAAAYSSILSSLGENPQRQGLLKTPWRAASAMQFFTKGYQETISDVLNDAIFDEDHDEMVIVKDIDMFSMCEHHLVPFVGKVHIGYLPNKQVLGLSKLARIVEIYSRRLQVQERLTKQIAVAITEALRPAGVGVVVEATHMCMVMRGVQKMNSKTVTSTMLGVFREDPKTREEFLTLIRS [GCH1]", "percent infected / %": 92.6}

Moving on to another sequence below.
Lookup result for MKKSGVLFLLGIILLVLIGVQGTPVVRKGRCSCISTNQGTIHLQSLKDLKQFAPSPSCEKIEIIATLKNGVQTCLNPDSADVKELIKKWEKQVSQKKKQKNGKKHQKKKVLKVRKSQRSRQKKTT [CXCL9] ; measured percent infected: 83.1

* * *

Below, each entry is listed alongside its reported percent infected.
System: Sindbis virus TE/5'2J-GFP
RUN_DESCRIPTION: percent infected (GFP+ in RFP+ ISG-expressing cells); higher = more infection (less antiviral activity)
MEASUREMENT_PARAMETERS: experiment: confirmatory screen 1; BHK/NZAP-Zeo (ZAP)
Form entry: value (%) — number only.

{"SEQUENCE_CODE": "MGILYSEPICQAAYQNDFGQVWRWVKEDSSYANVQDGFNGDTPLICACRRGHVRIVSFLLRRNANVNLKNQKERTCLHYAVKKKFTFIDYLLIILLMPVLLIGYFLMVSKTKQNEALVRMLLDAGVEVNATDCYGCTALHYACEMKNQSLIPLLLEARADPTIKNKHGESSLDIARRLKFSQIELMLRKAL [ANKRD22]", "READOUT_LABEL": "percent infected", "VALUE": 78.5}

Moving on to another sequence below.
Lookup result for MPSLWDRFSSSSTSSSPSSLPRTPTPDRPPRSAWGSATREEGFDRSTSLESSDCESLDSSNSGFGPEEDTAYLDGVSLPDFELLSDPEDEHLCANLMQLLQESLAQARLGSRRPARLLMPSQLVSQVGKELLRLAYSEPCGLRGALLDVCVEQGKSCHSVGQLALDPSLVPTFQLTLVLRLDSRLWPKIQGLFSSANSPFLPGFSQSLTLSTGFRVIKKKLYSSEQLLIEEC [DDIT4] ; measured percent infected: 76.2

* * *

System: Sindbis virus TE/5'2J-GFP;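 further: Interferon-defective BHK-21 derivatives, ZAP line overexpressing the rat ZAP N-terminal zinc finger domain fused to Zeocin resistance, GFP scored within live singlet TagRFP+ cells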
RUN_DESCRIPTION: percent infected (GFP+ in RFP+ ISG-expressing cells); higher = more infection (less antiviral activity)
MEASUREMENT_PARAMETERS: experiment: confirmatory screen 2; BHK/HA-Zeo (control)
READOUT_LABEL: percent infected (%)
Form entry: value (%) — number only.

These solved cases illustrate the format of a correct answer.
{"SEQUENCE_CODE": "MHQSLTQQRSSDMSLPDSMGAFNRRKRNSIYVTVTLLIVSVLILTVGLAATTRTQNVTVGGYYPGVILGFGSFLGIIGSNLIENKRQMLVASIVFISFGVIAAFCCAIVDGVFAARHIDLKPLYANRCHYVPKTSQKEAEEVISSSTKNSPSTRVMRNLTQAAREVNCPHLSREFCTPRIRGNTCFCCDLYNCGNRVEITGGYYEYIDVSSCQDIIHLYHLLWSATILNIVGLFLGIITAAVLGGFKDMNPTLPALNCSVENTHPTVSYYAHPQVASYNTYYHSPPHLPPYSAYDFQHSGVFPSSPPSGLSDEPQSASPSPSYMWSSSAPPRYSPPYYPPFEKPPPYSP [FAM70A]", "percent infected, %": 96.1}
{"SEQUENCE_CODE": "MSLRGSLSRLLQTRVHSILKKSVHSVAVIGAPFSQGQKRKGVEHGPAAIREAGLMKRLSSLGCHLKDFGDLSFTPVPKDDLYNNLIVNPRSVGLANQELAEVVSRAVSDGYSCVTLGGDHSLAIGTISGHARHCPDLCVVWVDAHADINTPLTTSSGNLHGQPVSFLLRELQDKVPQLPGFSWIKPCISSASIVYIGLRDVDPPEHFILKNYDIQYFSMRDIDRLGIQKVMERTFDLLIGKRQRPIHLSFDIDAFDPTLAPATGTPVVGGLTYREGMYIAEEIHNTGLLSALDLVEVNPQLATSEEEAKTTANLAVDVIASSFGQTREGGHIVYDQLPTPSSPDESENQARVRI [ARG2]", "percent infected, %": 95.8}
{"SEQUENCE_CODE": "MKKSGVLFLLGIILLVLIGVQGTPVVRKGRCSCISTNQGTIHLQSLKDLKQFAPSPSCEKIEIIATLKNGVQTCLNPDSADVKELIKKWEKQVSQKKKQKNGKKHQKKKVLKVRKSQRSRQKKTT [CXCL9]", "percent infected, %": 88.7}
{"SEQUENCE_CODE": "MDFKIEHTWDGFPVKHEPVFIRLNPGDRGVMMDISAPFFRDPPAPLGEPGKPFNELWDYEVVEAFFLNDITEQYLEVELCPHGQHLVLLLSGRRNVWKQELPLSFRMSRGETKWEGKAYLPWSYFPPNVTKFNSFAIHGSKDKRSYEALYPVPQHELQQGQKPDFHCLEYFKSFNFNTLLGEEWKQPESDLWLIEKCDI [C4orf33]", "percent infected, %": 96.4}
{"SEQUENCE_CODE": "MPGKKARKNAQPSPARAPAELEVECATQLRRFGDKLNFRQKLLNLISKLFCSGT [PMAIP1]", "percent infected, %": 95.1}

Moving on to another sequence below.
Lookup result for MIAAQAKLVYQLNKYYTERCQARKAAIAKTIREVCKVVSDVLKEVEVQEPRFISSLSEIDARYEGLEVISPTEFEVVLYLNQMGVFNFVDDGSLPGCAVLKLSDGRKRSMSLWVEFITASGYLSARKIRSRFQTLVAQAVDKCSYRDVVKMIADTSEVKLRIRERYVVQITPAFKCTGIWPRSAAQWPMPHIPWPGPNRVAEVKAEGFNLLSKECYSLTGKQSSAESDAWVLQFGEAENRLLMGGCRNKCLSVLKTLRDRHLELPGQPLNNYHMKTLLLYECEKHPRETDWDESCLGDRLNGILLQLISCLQCRRCPHYFLPNLDLFQGKPHSALESAAKQTWRLAREILTNPKSLDKL [MAB21L2] ; measured percent infected: 93.4
